target: Chromo domain-containing protein 1 (Saccharomyces cerevisiae (strain ATCC 204508 / S288c) (Baker's yeast)) (UniProt P32657); experiment: ScCHD-1 Enzyme Inhibition Assay; type: functional; design: scale not given: in the data most compounds retested in dose-response had high values; conditions: 30 µM
Sequence (P32657 whole entry, the tested form may be a part): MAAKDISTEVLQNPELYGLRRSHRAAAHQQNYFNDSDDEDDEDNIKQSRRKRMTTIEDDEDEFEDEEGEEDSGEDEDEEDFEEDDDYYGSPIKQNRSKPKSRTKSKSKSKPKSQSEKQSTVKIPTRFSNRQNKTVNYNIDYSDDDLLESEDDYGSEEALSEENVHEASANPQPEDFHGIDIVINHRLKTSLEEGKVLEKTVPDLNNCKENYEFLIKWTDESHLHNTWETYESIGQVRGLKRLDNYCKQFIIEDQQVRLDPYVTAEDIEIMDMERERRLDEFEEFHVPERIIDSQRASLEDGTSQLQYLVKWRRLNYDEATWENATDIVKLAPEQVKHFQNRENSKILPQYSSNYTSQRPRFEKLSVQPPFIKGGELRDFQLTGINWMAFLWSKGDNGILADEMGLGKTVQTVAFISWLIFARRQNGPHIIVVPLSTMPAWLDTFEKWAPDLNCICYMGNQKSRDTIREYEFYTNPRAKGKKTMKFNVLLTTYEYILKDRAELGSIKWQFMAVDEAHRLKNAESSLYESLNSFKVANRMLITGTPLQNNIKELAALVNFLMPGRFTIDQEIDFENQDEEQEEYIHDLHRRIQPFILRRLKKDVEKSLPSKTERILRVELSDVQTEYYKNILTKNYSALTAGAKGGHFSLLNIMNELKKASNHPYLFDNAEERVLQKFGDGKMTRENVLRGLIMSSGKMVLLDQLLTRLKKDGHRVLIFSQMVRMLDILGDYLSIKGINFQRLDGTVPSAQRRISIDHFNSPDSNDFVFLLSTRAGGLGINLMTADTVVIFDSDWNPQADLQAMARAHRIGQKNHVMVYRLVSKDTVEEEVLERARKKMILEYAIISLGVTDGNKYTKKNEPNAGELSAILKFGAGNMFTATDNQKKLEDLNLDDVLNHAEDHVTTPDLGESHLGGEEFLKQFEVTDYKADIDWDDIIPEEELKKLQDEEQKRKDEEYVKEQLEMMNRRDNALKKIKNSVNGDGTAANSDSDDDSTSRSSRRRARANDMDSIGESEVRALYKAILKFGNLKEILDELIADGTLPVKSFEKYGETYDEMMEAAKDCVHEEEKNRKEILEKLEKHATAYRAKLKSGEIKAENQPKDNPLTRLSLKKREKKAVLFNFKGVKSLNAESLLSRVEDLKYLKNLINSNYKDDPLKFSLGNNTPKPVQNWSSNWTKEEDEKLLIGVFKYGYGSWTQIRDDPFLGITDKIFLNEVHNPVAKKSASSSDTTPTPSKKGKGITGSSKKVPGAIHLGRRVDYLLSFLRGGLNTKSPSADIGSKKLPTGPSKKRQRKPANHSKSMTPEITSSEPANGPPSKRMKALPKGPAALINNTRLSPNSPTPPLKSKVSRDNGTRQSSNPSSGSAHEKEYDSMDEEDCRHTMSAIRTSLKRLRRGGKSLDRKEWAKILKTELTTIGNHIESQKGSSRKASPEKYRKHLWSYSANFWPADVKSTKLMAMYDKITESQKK
# Percent Effect listing for each entry below
Respond with the bare value in %.

-- ask Answer with the recorded Percent Effect for the compound listed here: CCCS(=O)(=O)N1CCN(c2cc(-n3nc(C)cc3C)nc(C)n2)CC1
-- reply -4.3

-- ask Output Percent Effect of CS(=O)(=O)NCc1nnc2n1CCN(Cc1cccs1)C2
-- reply 3.73

###

Recorded Percent Effect for the following compounds
target: Chromo domain-containing protein 1 (Saccharomyces cerevisiae (strain ATCC 204508 / S288c) (Baker's yeast)) (UniProt P32657); assay: ScCHD-1 Enzyme Inhibition Assay; assay type: functional; parameters: scale not given: in the data most compounds retested in dose-response had high values; settings: 30 µM
Express it in %; write the number only.

Before answering, review these 5 worked examples.
Cc1ccc(CN2CCCn3nnc(COCC4CC4)c3C2)s1    -3.12
CN1CC(c2ccccc2)CC12CCN(C(=O)c1ccc(F)cc1)CC2 (stereo not drawn)    -1.53
Cn1cc(C(=O)NC2CCN(Cc3ccn(C)c(=O)c3)CC2)cn1    -4.65
O=C(Nc1cccnc1)[C@H]1CO[C@H]2CCN(c3ncc(F)cn3)C[C@H]2C1    -9.48
COc1cccc(CNC(CN2CCN(C)CC2)c2ccccc2)c1 (stereo not drawn)    -3.35

-- ask Report Percent Effect for O=C(c1ccncc1)N1CCC2(CC1)CC(Oc1cccnc1)CO2 (stereo not drawn)
-- reply -0.282

-- ask Give me measured Percent Effect, please, for this compound: Cc1csc(N2CCN(CC(=O)Nc3c(C)n[nH]c3C)CC2C)n1 (stereo not drawn)
-- reply -4.83

-- ask Input CCc1csc(C2CCCN(C(=O)c3cnn(CC)c3)C2)n1 (stereo not drawn) , output reported Percent Effect.
-- reply -7.82

-- ask // fetch Percent Effect given entry CN(C)c1cc(C(=O)N2CCCC(n3cccn3)C2)ccn1 (stereo not drawn)
-- reply -3.29

-- ask Please give the documented Percent Effect of Cc1c(C)n(Cc2ccncc2)c2nc3c(c(N)c12)CCCCC3
-- reply -10.9

-- ask Indicate the recorded Percent Effect value for this compound: CC(C)(C(=O)NCC1CC1)c1ccccc1F
-- reply -3.44

-- ask Read the entry Cc1nccn1-c1cccc(C2CCCN2S(=O)(=O)N(C)C)n1 (stereo not drawn) and write its reported Percent Effect.
-- reply -24.5

-- ask Fill in Percent Effect for record Cc1n[nH]c(C2CN(CC(=O)NCc3ccco3)CCO2)n1 (stereo not drawn)
-- reply -2.33

-- ask Tell me measured Percent Effect for N#Cc1cc(NS(=O)(=O)c2ccc(C(=O)O)cc2F)ccc1F please.
-- reply -0.823

-- ask Supply reported Percent Effect belonging to this compound: COCCN1CCN(Cc2noc(C3CC3)n2)CC1C (stereo not drawn)
-- reply -3.63

-- ask Identify measured Percent Effect corresponding to COc1ccc(OCC(=O)NC(C)c2ccc(F)cc2)c(C(=O)O)c1 (stereo not drawn)
-- reply -5.02

-- ask For the compound CCO[C@@H]1CO[C@@]2(CCCN(S(=O)(=O)c3cccnc3)C2)C1 , give its measured Percent Effect value.
-- reply 2.99

###

species: Homo sapiens; experiment: To identify inhibition of the IFN signalling (Jak-Stat) pathway via expression of an eGFP reporter gene under the control of an IFN-stimulated response element (ISRE) containing MxA promoter.; format: functional; parameters: scale not given: direction of the effect not stated beside the values; conditions: 30 µM
Readings of Percent Effect for the listed molecules
The figure you give is taken to be in %; do not add the unit.

Completed entries (count: 5):
CN(C)C(=O)CN1C(=O)CCC12CCN(Cc1cccn1C)CC2    7.89
Cc1cc(C)n(-c2ccc(CNCc3ccc(OC(C)C)cc3)cn2)n1    20.5
C=Cc1ccc(C(=O)N2CCCC(Nc3ccc(F)cc3)C2)cc1 (stereo unspecified)    2.82
CC(c1cccc(S(N)(=O)=O)c1)N(C)CCc1ccccc1 (stereo unspecified)    13.6
Cc1cnc(CN2CCOC(CNc3cccnn3)C2)cn1 (stereo unspecified)    17.9

-- ask Please report the measured Percent Effect for COCCN1CCCN(C(=O)NC(C)Cn2cccn2)CC1 (stereo unspecified)
-- reply 14.4
